- System: EPHB2 kinase domain
- Assay Summary: pTyr-Var library bacterial peptide display kinase screen (enrichment scores);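 also: log2 fold change in enrichment of variant over reference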
- Assay type: biochemical, human
- Measurement Parameters: sheet EPHB2; effect of variant peptide relative to its reference peptide in the pTyr-Var library screen (enrichment scores)
Measured Screen accompanies every entry in the list below.
Test Readout: Screen

* MSRFIYSTDFF [NTRK1_Y676_D674Y_YF] | -1.706
* FSMGCYEIFLG [HMGCL_Y198_S201Y_YF] | 0.8942
* VFLGAYDHFLP [SLC22A5_Y486_R488H_YF] | 1.125
* HNLDFYKETTN [FGFR3_Y648_K650E_YF] | -1.243
* EFHRLYEEFTR [PIK3R1_Y467_D464H_YF] | -0.0373
* RNFGTYTAGLS [RHBDD1_Y264_D262G_YF] | -2.902

* * *

- Tested on: EPHB1 kinase domain
- Assay Summary: pTyr-Var library bacterial peptide display kinase screen (enrichment scores)
- Format: biochemical, human
- Measurement Parameters: sheet "EPHB1"; variant seq vs reference seq; bacterial peptide display enrichment
Screen (variant relative to reference peptide, measured in the pTyr-Var library screen) less than 0.9 is y; Screen (variant relative to reference peptide, measured in the pTyr-Var library screen) greater than or equal to 0.9 is n.

* LTFHMYADPNI [SOS1_Y618_F623I_YF] | y
* FTDPFYDFEIE [ZC3H18_Y372_A368T_YF] | n
* SVVVLYEPPEV [TP53_Y220_P219L] | n
* SEKISYVFMKR [SSX7_Y48_L43S_YF] | y
* VFLGAYDHFLP [SLC22A5_Y486_R488H_YF] | n
* HLGNQYVNVMN [SLC3A1_Y461_R456H] | y
* VARAVYQAVLS [SMG1_Y549_H546R] | y

* * *

- Tested on: EPHB1 kinase domain
- Assay Summary: pTyr-Var library bacterial peptide display kinase screen (enrichment scores)
- Assay type: biochemical, human
- Measurement Parameters: sheet EPHB1; effect of the variant peptide relative to its reference peptide in the pTyr-Var library screen (enrichment scores)
Under this convention, rule met denotes Screen strictly below 0.04 and rule not met denotes Screen at or above 0.04.

• ICFSDYVEVAD [PHACTR1_Y525_R521C] = rule not met
• GENTVYAQVFN [LY9_Y603_M602V] = rule not met
• QMIETYFDFRV [NSMF_Y506_L511V] = rule met
• RNFGTYTAGLS [RHBDD1_Y264_D262G_YF] = rule met
• MENFIYESMQF [CYP19A1_Y361_R365Q_YF] = rule not met
• SRDPFYEMLTA [CYTH1_Y382_A386T] = rule not met
• TTPFNYSFIFK [RAB14_Y8_A4T_YF] = rule met

* * *

- Test Target: c-Abl kinase domain (Mus musculus)
- Assay Summary: pTyr-Var library bacterial peptide display kinase screen (enrichment scores);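 also: log2 fold change in enrichment of variant over reference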
- Type: biochemical
- Measurement Parameters: fig5-data2, sheet "Abl"; Screen for the variant/reference peptide pair, pTyr-Var library
Mark 1.0 only for Screen values smaller than 1; exact matches and larger values are 0.0.

• DENWFYTQAAS [RPS19_Y54_R56Q] = 1.0
• AATTAYSKPKQ [MAP3K7_Y405_R410Q] = 1.0
• DCLASYLDKVR [KRT16_Y131_R127C] = 0.0
• INITIYGKTFH [EFHC1_Y177_R182H] = 0.0
• HGAKVYIDPFT [EPHB4_Y590_T587A] = 0.0
• EFSNQYKATIG [RAB7A_Y37_K32E] = 0.0
• FSMGCYEIFLG [HMGCL_Y198_S201Y_YF] = 1.0
• FDKPVYQKTTE [LDLR_Y828_N825K] = 1.0
• LVLIKYLPEWT [PSEN1_Y240_F237L] = 0.0
• ICFSDYVEVAD [PHACTR1_Y525_R521C] = 0.0
• GFGGGYGGVLT [KRT19_Y65_A60G_YF] = 1.0
• IGVDSYSVCKR [RPS6KA3_Y433_G431D] = 1.0
• FEPWVYSLSFE [PRKDC_Y647_F649L_YF] = 1.0
• FIGVTYKNKED [PDGFRA_Y993_E996K_YF] = 1.0

* * *

- Test Target: c-Abl kinase domain (Mus musculus, UniProt P00520)
- Sequence (P00520 242-493 limits assumed): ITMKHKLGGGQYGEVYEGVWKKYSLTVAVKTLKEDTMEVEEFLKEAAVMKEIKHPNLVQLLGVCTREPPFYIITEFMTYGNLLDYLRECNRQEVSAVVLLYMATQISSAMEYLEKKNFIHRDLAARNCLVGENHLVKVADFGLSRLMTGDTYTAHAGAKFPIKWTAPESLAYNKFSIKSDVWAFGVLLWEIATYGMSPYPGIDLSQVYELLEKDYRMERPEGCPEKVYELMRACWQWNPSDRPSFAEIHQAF
- Assay Summary: pTyr-Var library bacterial peptide display kinase screen (enrichment scores);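 also: log2 fold change in enrichment of variant over reference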
- Assay type: biochemical
- Measurement Parameters: sheet "Abl"; effect of variant peptide relative to its reference peptide in pTyr-Var library screen (enrichment)
Note: every record was labeled by where its Screen sits among bottom: < -1; middle: ≥ -1 and < 0.9; top: ≥ 0.9

• QTSSNYDDAMQ [ZNF281_Y531_I527T] = bottom
• SGSFRYGSSFE [SELE_Y390_C394F] = middle
• DLQDEYDFKRK [STAT1_Y170_C174R] = bottom
• LLSVAYKNVVR [YWHAZ_Y48_G53R] = top
• NPQKSYFICLF [WAS_Y83_R86C_YF] = top
• RLAKRYLIWEC [SCN5A_Y694_Q692K] = bottom
• SGEKPYKCSVC [ZNF543_Y283_E287V] = top
• LLTKVYVVEGS [ZMPSTE24_Y253_P248L] = bottom
• ADRNHYRRFRR [YBX1_Y145_P149R_YF] = bottom
• VIIVLYFSLWK [SLC6A2_Y249_V245I] = middle
• AEFGLYRAMVR [VSX2_Y222_G223R_YF] = top
• MKKMHYVDPDR [ST3GAL5_Y99_H104R] = middle
• KNNSIYVLANI [VNN1_Y134_V136L] = bottom
• FTDPFYDFEIE [ZC3H18_Y372_A368T_YF] = top
• MNKNAYHNVTT [ST3GAL6_Y306_A311T] = middle

* * *

- Tested on: EPHB2 kinase domain
- Assay Summary: pTyr-Var library bacterial peptide display kinase screen (enrichment scores);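 also: log2 fold change in enrichment of variant over reference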
- Format: biochemical, human
- Measurement Parameters: sheet EPHB2; effect of variant peptide relative to its reference peptide in the pTyr-Var library screen (enrichment scores)
Category key, based on recorded Screen: low-valued = under -0.3, mid-valued = from -0.3 up to 1, high-valued = 1 and over

• NREGVYTVSAP [TGFBI_Y537_F540S] = low-valued
• RQQQDYWLKDV [ANPEP_Y600_I603K] = low-valued
• RTVPLYESLRK [DDB1_Y718_P721L] = mid-valued
• IKRIDYEFVEM [ADA_Y84_A83D] = high-valued
• TLSGTYQFIIA [FOXL2_Y81_I80T_YF] = low-valued
• MENFIYESMQF [CYP19A1_Y361_R365Q_YF] = high-valued
• ASTHIYQIMNH [ITK_Y588_V587I] = high-valued
• RVLQLYGCSPS [ASTL_Y279_K277Q] = high-valued
• QMVGMYASFFM [AVPR2_Y124_S127F_YF] = high-valued
• GTSLIYWILFT [G6PC3_Y214_T216I] = low-valued
• NVKGIYAVADV [GSR_Y371_G374A] = high-valued
• KAWGIYDCQQP [CYP3A7_Y75_V71A] = mid-valued

* * *

- Test Target: c-Abl kinase domain (Mus musculus, UniProt P00520)
- Assay Summary: pTyr-Var library bacterial peptide display kinase screen (enrichment scores);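 also: log2 fold change in enrichment of variant over reference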
- Type: biochemical
- Measurement Parameters: fig5-data2, sheet "Abl"; Screen for the variant/reference peptide pair, pTyr-Var library
Measured Screen by item
Test Readout: Screen

* TVHPGYGFLSE [PCCA_Y143_A138T] | 1.846
* RILENYGADID [DNAH5_Y596_L591R] | -0.1652
* SSTAMYSAAGR [PSMB1_Y8_P11A] | -0.5664
* PSPTKYSLSPS [RANBP2_Y785_R784K] | 1.871
* IKRIDYEFVEM [ADA_Y84_A83D] | 0.5744
* RKLVDYDSAQH [BIN1_Y150_R154Q] | -0.7012
* DHPSEYAARQL [ANXA13_Y90_R86H] | 0.8208
* ISNATYKQIGL [FLT1_Y199_E201Q] | -0.6358
* ADLVQYFMEHH [PTPN11_Y80_E76D_YF] | 0.02377
* FRDALYKSMVD [PHEX_Y250_F252S_YF] | 1.216
* FRQNGYIPGSN [PCDHGB2_Y895_V894G_YF] | -0.7593
* AALSAYAPQRP [PTPRN2_Y249_A251P] | -0.5816
* FKEDPYLVVNP [MCM6_Y810_E806K_YF] | -1.709

* * *

- Test Target: c-Src kinase domain (Homo sapiens)
- Assay Summary: pTyr-Var library bacterial peptide display kinase screen (enrichment scores);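 also: log2 fold change in enrichment of variant over reference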
- Type: biochemical
- Measurement Parameters: sheet "Src"; effect of the variant peptide relative to its reference peptide in the pTyr-Var library screen
Decision: Screen beneath 0.1 gives Yes; Screen meeting or exceeding 0.1 gives No.

- TDTQLYGRFGS [ITGA2B_Y384_G380D]: Yes
- LQKNIYSEELR [LMNA_Y211_F206L]: Yes
- Ac-WDLPEYSFKDP-NH2 [ITGA3_Y237_S235P_YF, pTyr-Var library variant phosphosite peptide]: Yes
- TLSGTYQFIIA [FOXL2_Y81_I80T_YF]: Yes
- RTVPLYESLRK [DDB1_Y718_P721L]: No
- FAELVYTSFWH [ASS1_Y322_G324S]: Yes
- FSMGCYEIFLG [HMGCL_Y198_S201Y_YF]: No
- MENFIYESMQF [CYP19A1_Y361_R365Q_YF]: No
- DPLLTYQFPPK [LMNA_Y481_R482Q]: No
- GENTVYAQVFN [LY9_Y603_M602V]: No
- FKEDPYLVVNP [MCM6_Y810_E806K_YF]: Yes
- ELQGTYTSLQQ [KIF3C_Y574_R571Q]: No
- SSSNPYSTVTV [ACTN2_Y599_M604V]: Yes
- SSSAIYDNPDL [DCP1B_Y191_N195D]: Yes
- VKANTYENFWP [GATM_Y100_K102N_YF]: No
- VDGSVYELHPS [GCK_Y413_K414E]: No
- NVKGIYAVADV [GSR_Y371_G374A]: Yes
- KVPAIYGVGTR [CPS1_Y162_D165G]: No
- QMVGMYASFFM [AVPR2_Y124_S127F_YF]: No
- PQAVTYAEVKH [LILRB4_Y360_K362E]: No
- FQKNVYSEELR [LMNA_Y211_I210V]: Yes
- ASTHIYQIMNH [ITK_Y588_V587I]: No
- GTSLIYWILFT [G6PC3_Y214_T216I]: Yes
